Give measured % inhibition of cyclosporine metabolism for each item. Keep answers brief.
Tested on: rat cytochrome P450 3A
condition.details: Table 2; 0.0001 wt. % component
Numbers only, in %.

Give me % inhibition of cyclosporine metabolism for each of these compounds, listed below.
1. C=C(C)C1CC=C(C)C(O)C1 (single isomer, unassigned) [Carveol-(-), p-Mentha-6,8-dien-2-ol]
2. CC(C)=C1CC[C@@H](C)CC1=O [Pulegone-(R)-(+), p-Menth-4(8)-en-3-one]
3. C=CC(=C)CCC=C(C)C [Myrcene-β, 7-Methyl-3-methylene-1,6-octadiene]

Output line:
1: 2; 2: -17; 3: 0

---

Assign % inhibition of cyclosporine metabolism to each entry below.
Tested on: rat cytochrome P450 3A
condition.details: Table 2; 0.0001 wt. % component
Numbers only, in %.

Answered examples (2):
molecule	% inhibition of cyclosporine metabolism [%]
CC1=CCC(C(C)(C)O)CC1 (stereo not drawn)	13.4
COc1cc(CNC(=O)CCCC/C=C/C(C)C)ccc1O [Capsaicin, trans-8-Methyl-N-vanillyl-6 nonenamide]	27

Field: next molecule
Input line: Record request: % inhibition of cyclosporine metabolism value, item CC(C)[C@@H]1CC[C@@H](C)CC1=O [Menthone-(-), p-Menthan-3-one]
Output line: 14

Origin of measurements: patent US5665386A
